- Test system: MOLT-4 (T cell leukemia cell)
- Experimental conditions: MOLT-4 cell density after 3 days of culture, read from FIG. 2
Measured property: CC50 (µM)
Only the number, expressed in µM, is required.

## Input Which CC50 is reported for this compound? O=S(=O)([O-])c1cc2c(O)c(c1)Sc1cc(S(=O)(=O)[O-])cc(c1O)Sc1cc(S(=O)(=O)[O-])cc(c1O)Sc1cc(S(=O)(=O)[O-])cc(c1O)S2.[Na+].[Na+].[Na+].[Na+] [cyclic phenol sulfide (III)]
## Output 700

These entries and their values trace back to patent US6355671B1.
